All figures here come from patent US20240166635A1.

MEASURED_TARGET: CDK2/CyclinE1 (Homo sapiens (Human))
ASSAY_NAME: CDK2/CyclinE1 kinase inhibitory activity (Caliper mobility shift)
TEST_CONDITIONS: read-out: CDK2/Cyclin El IC50
ENDPOINT: IC50

// known answers, use as guide
| COMPOUND | IC50 |
| --- | --- |
| CC1(O)CCCC1Oc1nc(NC2CCN(S(=O)(=O)CC3CCOC3)CC2)ncc1C#N (single isomer, unassigned) [Example 40b] | 10 to 100 nM |
| N#Cc1cnc(Nc2ccc(S(N)(=O)=O)cc2)nc1OC1CCCC(O)C1 (single isomer, unassigned) [Example 21b] | 10 to 100 nM |
| N#Cc1cnc(Nc2ccc(S(N)(=O)=O)cc2)nc1OC1CCCC(O)C1 (single isomer, unassigned) [Example 21a] | < 10 nM |
| Cn1cc(S(=O)(=O)N2CCC(Nc3ncc(Br)c(OC4CCCCC4O)n3)CC2)cn1 (single isomer, unassigned) [Example 144a] | 10 to 100 nM |
| CC1(O)CCCC1Oc1nc(NC2CCN(S(=O)(=O)CC3CCOC3)CC2)ncc1C#N (single isomer, unassigned) [Example 40a] | < 10 nM |

From here, focus on the item given below.
The compound identified as CCS(=O)(=O)N1CCC(Nc2ncc(C#N)c(OC3CCCC3(C)O)n2)CC1 (single isomer, unassigned) [Example 36a] registered its IC50 at 10 to 100 nM

====

Recorded IC50 by entry
MEASURED_TARGET: CDK4/Cyclin D1 (Homo sapiens (Human), UniProt P11802)
Sequence (P11802 whole entry): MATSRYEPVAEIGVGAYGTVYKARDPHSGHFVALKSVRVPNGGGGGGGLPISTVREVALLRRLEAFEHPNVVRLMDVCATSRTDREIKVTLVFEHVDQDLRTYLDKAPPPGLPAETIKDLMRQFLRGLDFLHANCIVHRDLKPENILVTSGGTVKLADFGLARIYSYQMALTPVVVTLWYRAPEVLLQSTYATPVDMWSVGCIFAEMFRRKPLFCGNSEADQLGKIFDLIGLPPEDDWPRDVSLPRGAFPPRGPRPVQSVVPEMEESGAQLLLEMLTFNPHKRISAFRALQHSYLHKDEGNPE
Sequence (P24385 whole entry partner): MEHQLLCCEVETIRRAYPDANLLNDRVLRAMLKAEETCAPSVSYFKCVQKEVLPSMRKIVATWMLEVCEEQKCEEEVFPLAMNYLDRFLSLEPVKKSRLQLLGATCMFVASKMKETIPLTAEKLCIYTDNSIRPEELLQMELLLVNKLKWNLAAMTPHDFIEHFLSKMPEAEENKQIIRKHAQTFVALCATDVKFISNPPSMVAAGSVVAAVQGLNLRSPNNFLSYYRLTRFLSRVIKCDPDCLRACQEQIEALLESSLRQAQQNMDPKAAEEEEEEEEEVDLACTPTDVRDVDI
ASSAY_NAME: CDK4/CyclinD1 kinase inhibitory activity (Caliper mobility shift)

// known answers, use as guide
| MOLECULE | MEASURED_TARGET | ENDPOINT | VALUE_MEASURED |
| --- | --- | --- | --- |
| [2H]C1([2H])CC(O)C(Oc2nc(Nc3ccc(S(=O)(=O)NC([2H])([2H])[2H])cc3)ncc2C(F)(F)F)C1 (single isomer, unassigned) [Example 110a] | CDK4/Cyclin D1 (Homo sapiens (Human), UniProt P11802) | IC50 | 100 to 1000 nM |
| Cn1cc(S(=O)(=O)N2CCC(Nc3ncc(C#N)c(OC4CCCC4(C)O)n3)CC2)cn1 (single isomer, unassigned) [Example 48a] | CDK4/Cyclin D1 (Homo sapiens (Human), UniProt P11802) | IC50 | < 10 nM |
| CNS(=O)(=O)c1ccc(Nc2ncc(C(F)(F)F)c(OC3CCOCCC3O)n2)cc1 (single isomer, unassigned) [Example 102b] | CDK4/Cyclin D1 (Homo sapiens (Human), UniProt P11802) | IC50 | ≥ 1000 nM |
| CC1(COc2nc(NC3CCN(S(=O)(=O)CCO)CC3)ncc2C#N)CCCC1 [Example 57] | CDK4/Cyclin D1 (Homo sapiens (Human), UniProt P11802) | IC50 | < 10 nM |
| O=S(=O)(NC1CC1)c1ccc(Nc2ncc(C(F)(F)F)c(OC3CCCC3O)n2)cc1 (single isomer, unassigned) [Example 107a] | CDK4/Cyclin D1 (Homo sapiens (Human), UniProt P11802) | IC50 | 100 to 1000 nM |

The molecule identified as CC1(O)COCCC1Oc1nc(NC2CCN(S(C)(=O)=O)CC2)ncc1C(F)(F)F (single isomer, unassigned) [Example 124a] registered its IC50 at 10 to 100 nM

The molecule identified as CC1(COc2nc(NC3CCN(S(N)(=O)=O)CC3)ncc2C#N)CCCC1 [Example 56] registered its IC50 at < 10 nM

====

MEASURED_TARGET: CDK1/CyclinB (Homo sapiens (Human), UniProt P06493)
Sequence (P06493 whole entry): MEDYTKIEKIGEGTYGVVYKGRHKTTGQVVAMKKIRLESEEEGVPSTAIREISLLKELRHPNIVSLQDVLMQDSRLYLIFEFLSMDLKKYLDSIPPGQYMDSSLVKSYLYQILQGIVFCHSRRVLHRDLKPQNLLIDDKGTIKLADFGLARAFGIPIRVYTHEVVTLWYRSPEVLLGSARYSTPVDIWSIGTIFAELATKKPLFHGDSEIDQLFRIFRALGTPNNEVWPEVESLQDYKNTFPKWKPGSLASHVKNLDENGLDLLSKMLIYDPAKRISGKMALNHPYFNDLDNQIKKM
Sequence (P14635 whole entry partner): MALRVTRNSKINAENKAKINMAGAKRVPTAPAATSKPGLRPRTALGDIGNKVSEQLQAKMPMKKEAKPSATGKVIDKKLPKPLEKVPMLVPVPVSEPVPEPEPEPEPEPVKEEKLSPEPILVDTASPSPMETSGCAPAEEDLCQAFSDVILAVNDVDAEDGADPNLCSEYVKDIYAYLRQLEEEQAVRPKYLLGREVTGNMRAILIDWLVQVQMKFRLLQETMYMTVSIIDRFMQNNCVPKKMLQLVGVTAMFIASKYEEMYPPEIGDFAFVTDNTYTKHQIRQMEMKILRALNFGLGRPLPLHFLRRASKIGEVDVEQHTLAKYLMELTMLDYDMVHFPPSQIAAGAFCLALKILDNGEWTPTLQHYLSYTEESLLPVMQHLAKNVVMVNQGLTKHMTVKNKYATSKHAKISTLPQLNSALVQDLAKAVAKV
ASSAY_NAME: CDK1/CyclinB kinase inhibitory activity (Caliper mobility shift)
TEST_CONDITIONS: read-out: CDK1/Cyclin B1 IC50
ENDPOINT: IC50

// known answers, use as guide
| COMPOUND | ENDPOINT | VALUE_MEASURED |
| --- | --- | --- |
| CC1(O)COCCC1Oc1nc(NC2CCN(S(C)(=O)=O)CC2)ncc1C(F)(F)F (single isomer, unassigned) [Example 124a] | IC50 | 10 to 100 nM |
| CS(=O)(=O)N1CCC(Nc2ncc(C(F)(F)F)c(OC3CCC3)n2)CC1 | IC50 | 10 to 100 nM |
| N#Cc1cnc(Nc2ccc(S(N)(=O)=O)cc2)nc1OC1CCCC1CO (single isomer, unassigned) [Example 18a] | IC50 | 100 to 1000 nM |

The compound identified as CC1(O)CCCC1Oc1nc(NC2CCN(S(=O)(=O)CC3CC3)CC2)ncc1C#N (single isomer, unassigned) [Example 38b] registered its IC50 at 100 to 1000 nM

The compound identified as `CC1(COc2nc(NC3CCN(S(C)(=O)=O)CC3)ncc2C#N)CCCC1` registered its IC50 at 10 to 100 nM

The compound identified as CNS(=O)(=O)c1ccc(Nc2ncc(C#N)c(OC3CCCC3(C)O)n2)cc1 (single isomer, unassigned) [Example 34a] registered its IC50 at < 10 nM

The compound identified as CC(C)NS(=O)(=O)c1ccc(Nc2ncc(C3CC3)c(O[C@@H]3CCC[C@@H]3O)n2)cc1 (single isomer, unassigned) [Example 134a] registered its IC50 at 10 to 100 nM

====

MEASURED_TARGET: CDK9/CyclinT1 (Homo sapiens (Human))
Sequence (P50750 whole entry): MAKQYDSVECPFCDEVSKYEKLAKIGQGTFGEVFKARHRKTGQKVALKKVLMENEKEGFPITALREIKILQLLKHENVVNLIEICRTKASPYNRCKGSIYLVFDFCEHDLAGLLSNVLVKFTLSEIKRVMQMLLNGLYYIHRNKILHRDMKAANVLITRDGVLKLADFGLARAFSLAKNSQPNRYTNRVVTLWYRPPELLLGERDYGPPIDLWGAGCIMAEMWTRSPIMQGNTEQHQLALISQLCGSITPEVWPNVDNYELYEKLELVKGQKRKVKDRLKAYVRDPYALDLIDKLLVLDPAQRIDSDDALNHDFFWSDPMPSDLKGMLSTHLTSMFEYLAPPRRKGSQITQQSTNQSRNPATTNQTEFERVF
Sequence (O60563 whole entry partner): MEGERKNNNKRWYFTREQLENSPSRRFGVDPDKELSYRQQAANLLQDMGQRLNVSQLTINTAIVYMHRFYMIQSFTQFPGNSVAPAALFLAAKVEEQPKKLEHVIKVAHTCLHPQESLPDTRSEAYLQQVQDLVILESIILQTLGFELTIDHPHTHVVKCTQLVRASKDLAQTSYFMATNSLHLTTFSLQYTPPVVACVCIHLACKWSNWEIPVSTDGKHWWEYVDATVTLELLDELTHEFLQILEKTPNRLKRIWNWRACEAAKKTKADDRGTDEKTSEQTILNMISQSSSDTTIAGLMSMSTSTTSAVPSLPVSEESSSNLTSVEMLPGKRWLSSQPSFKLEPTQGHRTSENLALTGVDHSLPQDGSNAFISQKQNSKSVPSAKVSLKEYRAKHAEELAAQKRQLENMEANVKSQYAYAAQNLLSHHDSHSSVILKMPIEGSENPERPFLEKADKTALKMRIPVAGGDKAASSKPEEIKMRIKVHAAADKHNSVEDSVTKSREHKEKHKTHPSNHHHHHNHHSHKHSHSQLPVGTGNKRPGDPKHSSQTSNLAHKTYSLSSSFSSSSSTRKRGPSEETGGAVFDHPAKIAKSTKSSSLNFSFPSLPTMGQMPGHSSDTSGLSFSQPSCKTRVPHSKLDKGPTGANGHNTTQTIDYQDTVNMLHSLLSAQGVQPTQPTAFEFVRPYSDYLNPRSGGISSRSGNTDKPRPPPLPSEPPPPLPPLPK
ASSAY_NAME: CDK9/CyclinT1 kinase inhibitory activity (Caliper mobility shift)
TEST_CONDITIONS: read-out: CDK9/Cyclin T1 IC50
pIC50: −log10 of the molar value.
ENDPOINT: pIC50

// known answers, use as guide
| COMPOUND | VALUE_MEASURED |
| --- | --- |
| N#Cc1cnc(Nc2ccc(S(N)(=O)=O)cc2)nc1OC1CCCC1 | 7.00 to 8.00 |
| NS(=O)(=O)c1ccc(Nc2ncc(Br)c(OC3CCCC3O)n2)cc1 (single isomer, unassigned) [Example 141a] | 7.00 to 8.00 |
| CC(C)NS(=O)(=O)c1ccc(Nc2ncc(C(F)(F)F)c(OC3CCCC3O)n2)cc1 (single isomer, unassigned) [Example 106b] | 6.00 to 7.00 |

From here, focus on the item given below.
The compound identified as `[2H]C([2H])([2H])NS(=O)(=O)c1ccc(Nc2ncc(C(F)(F)F)c(OC3CCCC3)n2)cc1` registered its pIC50 at ≤ 6.00

====

MEASURED_TARGET: CDK1/CyclinB (Homo sapiens (Human))
ASSAY_NAME: CDK1/CyclinB kinase inhibitory activity (Caliper mobility shift)
TEST_CONDITIONS: read-out: CDK1/Cyclin B1 IC50
Recorded IC50 by entry

// known answers, use as guide
| MOLECULE | VALUE_MEASURED |
| --- | --- |
| [2H]C([2H])([2H])NS(=O)(=O)c1ccc(Nc2ncc(CC)c(OC3CCOCC3(C)O)n2)cc1 (single isomer, unassigned) [Example 152b] | ≥ 1000 nM |
| [2H]C1([2H])CC(O)C(Oc2nc(Nc3ccc(S(=O)(=O)NC([2H])([2H])[2H])cc3)ncc2C(F)(F)F)C1 (single isomer, unassigned) [Example 110a] | 10 to 100 nM |
| CCc1cnc(Nc2ccc(S(N)(=O)=O)cc2)nc1O[C@@H]1CCC[C@@H]1O (single isomer, unassigned) [Example 133b] | 100 to 1000 nM |
| Cc1cnc(Nc2ccc(S(=O)(=O)NC(C)C)cc2)nc1OC1CCCC1O (single isomer, unassigned) [Example 147b] | 100 to 1000 nM |
| Cn1cc(S(=O)(=O)N2CCC(Nc3ncc(C(F)(F)F)c(OC4CCOCC4(C)O)n3)CC2)cn1 (single isomer, unassigned) [Example 125a] | < 10 nM |

The molecule identified as [2H]C([2H])([2H])NS(=O)(=O)c1ccc(Nc2ncc(C)c(OC3CCCC3O)n2)cc1 (single isomer, unassigned) [Example 148b] registered its IC50 at 100 to 1000 nM

The molecule identified as N#Cc1cnc(Nc2ccc(S(N)(=O)=O)cc2)nc1OCC1CCCC1O (single isomer, unassigned) [Example 19b] registered its IC50 at 10 to 100 nM

The molecule identified as NS(=O)(=O)c1ccc(Nc2ncc(C(F)(F)F)c(OC3CCCCC3O)n2)cc1 (single isomer, unassigned) [Example 111a] registered its IC50 at 100 to 1000 nM

The molecule identified as [2H]C([2H])([2H])NS(=O)(=O)c1ccc(Nc2ncc(C(F)(F)F)c(OC3COCCC3O)n2)cc1 (single isomer, unassigned) [Example 117b] registered its IC50 at 100 to 1000 nM

The molecule identified as Cc1cnc(Nc2ccc(S(=O)(=O)NC3CC3)cc2)nc1OC1CCCC1O (single isomer, unassigned) [Example 146a] registered its IC50 at 100 to 1000 nM
